Reference source for all entries: ChEMBL document CHEMBL5108073

- Test system: Tubulin (Homo sapiens) (UniProt P68371+Q9H4B7+P0DPH7+P68366+Q13509+Q71U36+P04350+Q3ZCM7+P07437+P68363+Q9BQE3+Q6PEY2+Q13885+Q9BVA1+Q9BUF5)
- Assay remarks: Binding affinity to tubulin (unknown origin) assessed as association constant by SPR analysis
- Format: protein-complex assay
Numbered stars: 1 amine (or outer) side, 2 acyl side, 3 side chain; on linkers, the order of the positions; unused ones are H or OH. Bridge positions count the residues as written; N and C are the ends. Square brackets hold non-standard residues; d marks the D form. Peptide text beside a SMILES is read from it. Nle(6-ylidene) = O=C([C@H](CCCC=[*:3])N[*:1])[*:2]; Phe(4-Br) = N[C@@H](Cc1ccc(Br)cc1)C(=O)O; Phe(4-Cl) = N[C@@H](Cc1ccc(Cl)cc1)C(=O)O; Phe(4-F) = N[C@@H](Cc1ccc(F)cc1)C(=O)O
Measured endpoint: Ka

C[C@H](NC(=O)[C@H](CCCCN)NC(=O)[C@H](CCCNC(=N)N)NC(=O)[C@H](CCCNC(=N)N)NC(=O)[C@@H](N)Cc1ccccc1)C(=O)N[C@@H](Cc1ccccc1)C(=O)N[C@H]1CCC/C=C\CCC[C@@H](C(=O)NCC(=O)O)NC(=O)[C@H](Cc2ccc(O)cc2)NC(=O)[C@H](Cc2c[nH]c3ccccc23)NC(=O)[C@H](Cc2c[nH]cn2)NC1=O (H-FRRKAF[Nle(6-ylidene)]HWY[Nle(6-ylidene)]G-OH; staple (Z) 7-11) | 1.43 10^4/M/s
CC(=O)N[C@@H](Cc1ccccc1)C(=O)N[C@@H](CCCNC(=N)N)C(=O)N[C@@H](CCCNC(=N)N)C(=O)N[C@@H](CCCCN)C(=O)N[C@@H](C)C(=O)N[C@@H](Cc1ccc(Br)cc1)C(=O)N[C@H]1CCC/C=C\CCC[C@@H](C(=O)NCC(=O)O)NC(=O)[C@H](Cc2ccc(O)cc2)NC(=O)[C@H](Cc2c[nH]c3ccccc23)NC(=O)[C@H](Cc2cnc[nH]2)NC1=O (Ac-FRRKA[Phe(4-Br)][Nle(6-ylidene)]HWY[Nle(6-ylidene)]G-OH; staple (Z) 7-11) | 1.9 10^4/M/s
CC(=O)N[C@@H](Cc1ccccc1)C(=O)N[C@@H](CCCNC(=N)N)C(=O)N[C@@H](CCCNC(=N)N)C(=O)N[C@@H](CCCCN)C(=O)N[C@@H](C)C(=O)N[C@@H](Cc1ccc(Cl)cc1)C(=O)N[C@H]1CCC/C=C\CCC[C@@H](C(=O)NCC(=O)O)NC(=O)[C@H](Cc2ccc(O)cc2)NC(=O)[C@H](Cc2c[nH]c3ccccc23)NC(=O)[C@H](Cc2cnc[nH]2)NC1=O (Ac-FRRKA[Phe(4-Cl)][Nle(6-ylidene)]HWY[Nle(6-ylidene)]G-OH; staple (Z) 7-11) | 2.05 10^4/M/s

Exercise: # query: Ka of entry CC(=O)N[C@@H](Cc1ccccc1)C(=O)N[C@@H](CCCNC(=N)N)C(=O)N[C@@H](CCCNC(=N)N)C(=O)N[C@@H](CCCCN)C(=O)N[C@@H](C)C(=O)N[C@@H](Cc1ccc(F)cc1)C(=O)N[C@H]1CCC/C=C\CCC[C@@H](C(=O)NCC(=O)O)NC(=O)[C@H](Cc2ccc(O)cc2)NC(=O)[C@H](Cc2c[nH]c3ccccc23)NC(=O)[C@H](Cc2c[nH]cn2)NC1=O (Ac-FRRKA[Phe(4-F)][Nle(6-ylidene)]HWY[Nle(6-ylidene)]G-OH; staple (Z) 7-11)
Key: 2.14 10^4/M/s
